# test: gradient 5% acetonitrile 3 min, to 50% in 2 min, to 85% in 15 min, held 3 min, 100 µL/min
# particulars: column: Zorbax Extend-C18 2.1 x 50 mm; eluents: water / acetonitrile, 0.1% formic acid
property label: RP-LC retention time (s)
Record the value in s, omitting the unit from your answer.

# count of solved cases: 2
[[record]]
compound = "O=C(CN1C(=O)CCCc2cc(S(=O)(=O)N3CCCCC3)ccc21)NCc1ccccc1Cl"
units_label = "s"
result_value = 909

[[record]]
compound = "COc1ccc(CC2C(=O)Nc3ccc(Br)cc32)cc1 (centres undefined)"
units_label = "s"
result_value = 882


# get_value(readout='RP-LC retention time', item= `CC1=C(c2ccc(C)cc2)S(=O)(=O)N=C1N1CCC(NC(=O)Cc2cccs2)CC1` )
858

# get_value(readout='RP-LC retention time', item= CC(C)CCN1CCC(N2CCN(S(=O)(=O)c3ccc(C(F)(F)F)cc3)CC2)C1=O (centres undefined) )
794

# get_value(readout='RP-LC retention time', item= `CC(C)n1c(=O)c(Nc2cc(F)cc(F)c2)nc2ccncc21` )
719

# get_value(readout='RP-LC retention time', item= Cc1cccc(NC(=O)NCC(c2cccnc2)c2cn(C)c3ccccc23)c1 (centres undefined) )
723

# get_value(readout='RP-LC retention time', item= Cc1ccc(N2CC(C(=O)N3CCC(NS(=O)(=O)c4ccc(C)cc4)CC3)CC2=O)cc1 (centres undefined) )
826

* * *

# test: gradient 5% acetonitrile 3 min, to 50% in 2 min, to 85% in 15 min, held 3 min, 100 µL/min
# particulars: column: Zorbax Extend-C18 2.1 x 50 mm; eluents: water / acetonitrile, 0.1% formic acid
Just a reminder that ties go to No: only RP-LC retention time strictly below 800 s counts as Yes.

Record excerpt, results attached:
[[record]]
compound = "Cc1ccc(NC(=O)CN2CCc3[nH]c4c(C)cc(F)cc4c(=O)c3C2)c(Cl)c1"
classification = "Yes"

[[record]]
compound = "Cc1cc2nn(CC(=O)N3CCC(C)CC3)c(=O)n2c(Nc2ccc(C)c(C)c2)n1"
classification = "No"

[[record]]
compound = "Cc1[nH]c(-c2ccc(Cl)cc2)cc1C(=O)NC1CCCC1"
classification = "No"


Please determine if `Cc1oc(-c2ccc(C(=O)N3CCN(c4ccccn4)CC3)cc2)nc1CN1CCc2ccccc21` is below 800 s in terms of RP-LC retention time.
Yes

Please determine if `CNc1nc(Nc2ccc(OC)cc2)nc2ccccc12` is below 800 s in terms of RP-LC retention time.
Yes

Please determine if `CCOc1ccc(-n2ccn3c(CCCC(=O)N4CCN(c5ccccn5)CC4)nnc3c2=O)cc1` is below 800 s in terms of RP-LC retention time.
Yes

Please determine if `O=S(=O)(NCc1cccnc1)c1cc(-c2nnc(-c3ccccc3)o2)ccc1F` is below 800 s in terms of RP-LC retention time.
Yes

Please determine if `COc1cc(Nc2c(C(=O)N3CCCC3)cnc3nc(C)ccc23)cc(OC)c1` is below 800 s in terms of RP-LC retention time.
Yes

Please determine if `O=C(N[C@H]1C[C@@H]2C[C@H]1CN2C(=O)c1ccc(OC(F)(F)F)cc1)c1cccs1` is below 800 s in terms of RP-LC retention time.
No

Please determine if CC(=O)Nc1ccc(CC(=O)NC(C)C(=O)N2CCCc3ccccc32)cc1 (centres undefined) is below 800 s in terms of RP-LC retention time.
Yes

Please determine if `O=c1ccn(-c2cccc(F)c2)nc1-c1nc(-c2cccc(Br)c2)no1` is below 800 s in terms of RP-LC retention time.
No

Please determine if CC(C)NC(=O)C1CC(=O)N(CCc2c[nH]c3ccc(F)cc23)C1 (centres undefined) is below 800 s in terms of RP-LC retention time.
Yes

Please determine if `Cc1ccc(-c2nc(-c3ccc4nnc(C)n4c3)no2)cc1` is below 800 s in terms of RP-LC retention time.
No

Please determine if `Cc1cccc(Nc2nc(C(=O)N3CCC(C(N)=O)CC3)cs2)n1` is below 800 s in terms of RP-LC retention time.
Yes
